Listed here: items and their measured pIC50.
# Tested target: recombinant human IL17a (binding to its receptor IL17R) (Homo sapiens)
# Construct: 177-IR (IL17R/Fc)
# Protocol: IL-17 competition ELISA I (IL17a coated, IL17R/Fc binding)
pIC50: −log10 of the molar value.

These solved cases illustrate the format of a correct answer.
[[record]]
compound = "CC1(C)CC(=O)NCCCCCNC(=O)CNC(=O)[C@@H](Cc2ccc(NC(=O)[C@H](CC3CCC3)NC(=O)Cc3ccccc3)cc2)NC(=O)C1 [Compound 247]"
tested_target = "recombinant human IL17a (binding to its receptor IL17R) (Homo sapiens)"
reading = "6.00 to 7.00"

[[record]]
compound = "C[C@@H]1C(=O)NCCCCCNC(=O)CC2(CCCC2)CC(=O)N[C@H](Cc2ccc(NC(=O)[C@H](Cc3ccccc3Cl)NC(=O)Cc3ccccc3)cc2)C(=O)N1C [Compound 289]"
tested_target = "recombinant human IL17a (binding to its receptor IL17R) (Homo sapiens)"
reading = "5.00 to 6.00"

[[record]]
compound = "O=C1CNC(=O)[C@@H](Cc2ccc(NC(=O)[C@H](Cc3ccccc3Cl)NC(=O)c3ccc(F)cc3)cc2)NC(=O)CC2(CCCC2)CC(=O)NCCCCCN1 [Compound 227]"
tested_target = "recombinant human IL17a (binding to its receptor IL17R) (Homo sapiens)"
reading = "6.00 to 7.00"

[[record]]
compound = "O=C1CNC(=O)[C@@H](Cc2ccc(NC(=O)[C@H](Cc3ccccc3Cl)NC(=O)c3cncnc3)cc2)NC(=O)CC2(CCCC2)CC(=O)NCCCCCN1 [Compound 201]"
tested_target = "recombinant human IL17a (binding to its receptor IL17R) (Homo sapiens)"
reading = "6.00 to 7.00"

[[record]]
compound = "O=C1CNC(=O)[C@@H](Cc2ccc(NC(=O)[C@H](Cc3ccccc3Cl)NC(=O)c3ccc(Cl)cc3)cc2)NC(=O)CC2(CCCC2)CC(=O)NCCCCCN1 [Compound 205]"
tested_target = "recombinant human IL17a (binding to its receptor IL17R) (Homo sapiens)"
reading = "> 7.00"

[[record]]
compound = "O=C1CC2(CCCC2)CC(=O)N[C@H](Cc2ccc(NC(=O)[C@H](Cc3ccccc3Cl)NC(=O)Cc3ccccc3)cc2)C(=O)N[C@H](CO)C(=O)NCCCCCN1 [Compound 340]"
tested_target = "recombinant human IL17a (binding to its receptor IL17R) (Homo sapiens)"
reading = "> 7.00"

[[record]]
compound = "O=C1CNC(=O)[C@@H](Cc2ccc(NC(=O)[C@H](Cc3cccc(Cl)c3)NC(=O)Cc3ccccc3)cc2)NC(=O)CC2(CCCC2)CC(=O)OCCCCCN1 [Compound 212]"
tested_target = "recombinant human IL17a (binding to its receptor IL17R) (Homo sapiens)"
reading = "6.00 to 7.00"

[[record]]
compound = "O=C1CNC(=O)[C@@H](Cc2ccc(NC(=O)[C@H](Cc3ccccc3Cl)NC(=O)CC3CCCCC3)cc2)NC(=O)CC2(CCCC2)CC(=O)NCCCCCN1 [Compound 236]"
tested_target = "recombinant human IL17a (binding to its receptor IL17R) (Homo sapiens)"
reading = "> 7.00"


For the compound O=C1CNC(=O)[C@@H](Cc2ccc(NC(=O)[C@H](Cc3ccc(Cl)cc3)NC(=O)Cc3ccccc3)cc2)NC(=O)CC2(CCCC2)CC(=O)OCCCCCN1 [Compound 213] , give its measured pIC50 value. < 5.00

For the compound CN1CC(=O)NCCCCCNC(=O)CC2(CCCC2)CC(=O)N[C@H](Cc2ccc(NC(=O)[C@H](Cc3ccccc3Cl)NC(=O)Cc3ccc(O)cc3)cc2)C1=O [Compound 193] , give its measured pIC50 value. 6.00 to 7.00

For the compound O=C1CC2(CCCC2)CC(=O)N[C@H](Cc2ccc(NC(=O)[C@H](Cc3ccccc3Cl)NC(=O)Cc3ccc(CO)cc3)cc2)C(=O)NCCCCCCN1 [Compound 354] , give its measured pIC50 value. 6.00 to 7.00

For the compound CC(=O)N[C@@H](Cc1ccccc1Cl)C(=O)Nc1ccc(C[C@H]2NC(=O)CC3(CCCC3)CC(=O)NCCCCCNC(=O)CNC2=O)cc1 [Compound 153] , give its measured pIC50 value. > 7.00

----------
# Tested target: IL17A (Homo sapiens, UniProt Q16552)
# Sequence (Q16552 24-155): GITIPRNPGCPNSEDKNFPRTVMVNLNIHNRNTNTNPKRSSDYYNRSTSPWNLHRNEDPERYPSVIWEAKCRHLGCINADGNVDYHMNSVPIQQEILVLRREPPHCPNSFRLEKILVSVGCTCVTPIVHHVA
# Protocol: Surface Plasmon Resonance (SPR) analysis of compound interactions with IL17A
# Applied conditions: SPR binding to IL17A
pKd: −log10 of the molar value.
Value kind: pKd

These solved cases illustrate the format of a correct answer.
[[record]]
compound = "O=C1CNC(=O)[C@@H](Cc2ccc(NC(=O)[C@H](Cc3ccccc3Cl)NC(=O)c3ccc(O)cc3)cc2)NC(=O)CC2(CCCC2)CC(=O)NCCCCCN1 [Compound 215]"
value_kind = "pKd"
reading = "> 7.00"

[[record]]
compound = "O=C1CC2(CCCC2)CC(=O)N[C@H](Cc2ccc(NC(=O)[C@H](Cc3ccccc3F)NC(=O)Cc3ccccc3)cc2)C(=O)NCCCC[C@@H](C(=O)O)N1 [Compound 179]"
value_kind = "pKd"
reading = "6.00 to 7.00"

[[record]]
compound = "CC(=O)N[C@@H](Cc1ccccc1Cl)C(=O)Nc1ccc(C[C@H]2NC(=O)CC3(CCCC3)CC(=O)NCCCCCNC(=O)CNC2=O)cc1 [Compound 153]"
value_kind = "pKd"
reading = "> 7.00"


For the compound O=C1CCCNC(=O)[C@@H](Cc2ccc(NC(=O)[C@H](Cc3ccccc3Cl)NC(=O)Cc3ccccc3)cc2)NC(=O)CC2(CCCC2)CC(=O)NCCCCN1 [Compound 166] , give its measured pKd value. > 7.00

For the compound CC(=O)N[C@@H](Cc1ccccc1Cl)C(=O)Nc1ccc(C[C@H]2NC(=O)CC3(CCCC3)CC(=O)NCCCNC(=O)CNC2=O)cc1 [Compound 152] , give its measured pKd value. 6.00 to 7.00

For the compound CC(=O)N[C@@H](Cc1ccccc1Cl)C(=O)Nc1ccc(C[C@H]2NC(=O)CC3(CCCC3)CC(=O)NCCCCCNC(=O)CCCNC2=O)cc1 [Compound 155] , give its measured pKd value. > 7.00

For the compound COC(=O)[C@H]1CCCCNC(=O)C(C)(C)NC(=O)[C@@H](Cc2ccc(NC(=O)[C@H](Cc3ccccc3Cl)NC(=O)Cc3ccccc3)cc2)NC(=O)CC2(CCCC2)CC(=O)N1 [Compound 145] , give its measured pKd value. > 7.00

----------
# Tested target: biotinylated human IL-17 (binding to IL17R/Fc) (Homo sapiens)
# Construct: 177-IR (IL17R/Fc)
# Sequence (Q16552 20-155 limits assumed): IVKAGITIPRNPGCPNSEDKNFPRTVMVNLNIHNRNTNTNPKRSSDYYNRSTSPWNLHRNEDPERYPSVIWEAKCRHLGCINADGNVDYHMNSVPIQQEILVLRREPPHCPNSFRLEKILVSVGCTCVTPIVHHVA
# Protocol: IL-17 competition ELISA II (captured IL17R/Fc, biotinylated IL-17)
Value kind: IC50

[[record]]
compound = "C[C@H]1NC(=O)[C@@H](Cc2ccc(NC(=O)[C@@H](Nc3nc4ccccc4o3)C3CCCCC3)cc2)NC(=O)CC2(CCCC2)CC(=O)N(C)CCOCCN(C)C1=O [Compound 663]"
reading = "< 100 nM"

[[record]]
compound = "O=C1CC2(CCCC2)CC(=O)N[C@H](Cc2ccc(NC(=O)[C@H](Cc3ccccc3Cl)NC(=O)Cc3cccc(O)c3)cc2)C(=O)NCCCCCCCCN1 [Compound 441]"
reading = "< 100 nM"


Now consider a different compound.
For the compound O=C1CNC(=O)[C@@H](Cc2ccc(NC(=O)[C@@H](NC(=O)Cc3ccc(CO)cc3)C3CCCCC3)cc2)NC(=O)CC2(CCCC2)CC(=O)NCCCCCN1 [Compound 375] , give its measured IC50 value. < 100 nM

----------
# Tested target: IL17A (Homo sapiens)
# Protocol: Surface Plasmon Resonance (SPR) analysis of compound interactions with IL17A
# Applied conditions: SPR binding to IL17A
Listed here: items and their measured Kd.

These solved cases illustrate the format of a correct answer.
[[record]]
chemical_structure = "COC(=O)[C@@H]1CCCCNC(=O)CCCNC(=O)[C@@H](Cc2ccc(NC(=O)[C@H](Cc3cccc(F)c3)NC(=O)c3ccccc3)cc2)NC(=O)CC2(CCCC2)CC(=O)N1"
reading = "100 to 1000 nM"

[[record]]
chemical_structure = "COC(=O)[C@@H]1CCCCNC(=O)CCCNC(=O)[C@@H](Cc2ccc(NC(=O)[C@H](Cc3ccccc3Br)NC(=O)c3ccccc3)cc2)NC(=O)CC2(CCCC2)CC(=O)N1"
reading = "100 to 1000 nM"

[[record]]
chemical_structure = "O=C1CNC(=O)[C@@H](Cc2ccc(NC(=O)[C@H](Cc3cscn3)NC(=O)Cc3ccccc3)cc2)NC(=O)CC2(CCCC2)CC(=O)NCCCCCN1"
reading = "100 to 1000 nM"

[[record]]
chemical_structure = "O=C1CNC(=O)[C@@H](Cc2ccc(NC(=O)[C@H](Cc3ccccc3F)NC(=O)Cc3ccccc3)cc2)NC(=O)CC2(CCCC2)CC(=O)N[C@H](C(=O)O)CCCCN1"
reading = "< 100 nM"


Now consider a different compound.
For the compound O=C1CNC(=O)[C@@H](Cc2ccc(NC(=O)[C@H](Cc3ccccc3Cl)NC(=O)Cc3ccccc3)cc2)NC(=O)CC2(CCCC2)CC(=O)NCCOCCN1 , give its measured Kd value. < 100 nM
